Hello, the source for this data is PubChem BioAssay AID1963849, in case you need it.

Test system: 299254-011-R-J1-PDC complex spheroid viability
experimental details: Anticancer human tumor 299254-011-R-J1-PDC patient-derived melanoma cell line growth inhibition [POLQ]
test parameters: second compound 1 µM; first compound 0.01 µM; stronger effect = lower value
Procedure: Multicellular complex tumor spheroid response to Polymerase (POL) inhibitors (novobiocin, ART-558, RP6685) in combination with a variety of drugs and investigational agents in selected tumor cell lines The POL inhibitors (novobiocin, ART-558, and RP6685) were evaluated both individually and in combination with standard of care and investigational anticancer small molecules within a complex spheroid model of solid tumors. . […]
measurement name: viability, T/C (%)
Answers are plain numbers, in %.

Observe how each entry below is paired with its result.
CC[C@@]1(O)C(=O)OCc2c1cc1n(c2=O)Cc2cc3c(CN(C)C)c(O)ccc3nc2-1 + Nc1ccc(C#CCN(C(=O)Cc2ncc(C(F)(F)F)cc2C(F)(F)F)c2ccc(F)cc2)nn1; 111
CCc1c2c(nc3ccc(O)cc13)-c1cc3c(c(=O)n1C2)COC(=O)[C@]3(O)CC + Nc1ccc(C#CCN(C(=O)Cc2ncc(C(F)(F)F)cc2C(F)(F)F)c2ccc(F)cc2)nn1; 85.3
CCc1c2c(nc3ccc(O)cc13)-c1cc3c(c(=O)n1C2)COC(=O)[C@]3(O)CC + COC1C(OC(N)=O)C(O)C(Oc2ccc3c(O)c(NC(=O)c4ccc(O)c(CC=C(C)C)c4)c(=O)oc3c2C)OC1(C)C; 92.1

I need viability, T/C for every entry listed below, if you could help.
1. C=CCn1c(=O)c2cnc(Nc3ccc(N4CCN(C)CC4)cc3)nc2n1-c1cccc(C(C)(C)O)n1 + Cc1cccc(N(C)C(=O)C2C(O)CCN2c2nc(C)cc(C(F)(F)F)c2C#N)c1
2. C=CCn1c(=O)c2cnc(Nc3ccc(N4CCN(C)CC4)cc3)nc2n1-c1cccc(C(C)(C)O)n1 + Nc1ccc(C#CCN(C(=O)Cc2ncc(C(F)(F)F)cc2C(F)(F)F)c2ccc(F)cc2)nn1
3. CC[C@@]1(O)C(=O)OCc2c1cc1n(c2=O)Cc2cc3c(CN(C)C)c(O)ccc3nc2-1 + Cc1cccc(N(C)C(=O)C2C(O)CCN2c2nc(C)cc(C(F)(F)F)c2C#N)c1

[98.6, 120, 123]

Query COc1cccc(OCCCN)c1-c1cc(Nc2cnc(C#N)cn2)n[nH]1 + Nc1ccc(C#CCN(C(=O)Cc2ncc(C(F)(F)F)cc2C(F)(F)F)c2ccc(F)cc2)nn1 yields viability, T/C of 111

----------
Provide the reported pIC50 of each item.
Tested on: 299254-011-R-J1-PDC complex spheroid viability
experimental details: Anticancer human tumor 299254-011-R-J1-PDC cell line growth inhibition [POLQ];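 further: spheroids exposed to drugs for one week before measurement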
test parameters: curve of first compound; second compound 1 µM
Numbers only, as −log10 of the molar value.

COc1cccc(OCCCN)c1-c1cc(Nc2cnc(C#N)cn2)n[nH]1 + Cc1cccc(N(C)C(=O)C2C(O)CCN2c2nc(C)cc(C(F)(F)F)c2C#N)c1; 6.68

Here is the next item to consider.
// molecule COc1cccc(OCCCN)c1-c1cc(Nc2cnc(C#N)cn2)n[nH]1 + COC1C(OC(N)=O)C(O)C(Oc2ccc3c(O)c(NC(=O)c4ccc(O)c(CC=C(C)C)c4)c(=O)oc3c2C)OC1(C)C , assay 299254-011-R-J1-PDC complex spheroid viability, pIC50 value: 6.69

----------
System: 299254-011-R-J1-PDC complex spheroid viability
experimental details: Anticancer human tumor 299254-011-R-J1-PDC cell line growth inhibition [POLQ];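 further: spheroids exposed to drugs for one week before measurement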;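 on viability, T/C: percent viability relative to DMSO vehicle control taken as 100%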
test parameters: second compound 0.316 µM; first compound 0.01 µM; stronger effect = lower value
Protocol: Multicellular complex tumor spheroid response to Polymerase (POL) inhibitors (novobiocin, ART-558, RP6685) in combination with a variety of drugs and investigational agents in selected tumor cell lines The POL inhibitors (novobiocin, ART-558, and RP6685) were evaluated both individually and in combination with standard of care and investigational anticancer small molecules within a complex spheroid model of solid tumors. . […]
measurement name: viability, T/C

Would you please look over these solved cases?
C=CCn1c(=O)c2cnc(Nc3ccc(N4CCN(C)CC4)cc3)nc2n1-c1cccc(C(C)(C)O)n1 + Cc1cccc(N(C)C(=O)C2C(O)CCN2c2nc(C)cc(C(F)(F)F)c2C#N)c1; 108%
Cn1ncnc1[C@H]1c2n[nH]c(=O)c3cc(F)cc(c23)N[C@@H]1c1ccc(F)cc1 + Nc1ccc(C#CCN(C(=O)Cc2ncc(C(F)(F)F)cc2C(F)(F)F)c2ccc(F)cc2)nn1; 113%

I need viability, T/C for every entry listed below, if you could help.
1. CCc1c2c(nc3ccc(O)cc13)-c1cc3c(c(=O)n1C2)COC(=O)[C@]3(O)CC + Cc1cccc(N(C)C(=O)C2C(O)CCN2c2nc(C)cc(C(F)(F)F)c2C#N)c1
2. CC[C@@]1(O)C(=O)OCc2c1cc1n(c2=O)Cc2cc3c(CN(C)C)c(O)ccc3nc2-1 + COC1C(OC(N)=O)C(O)C(Oc2ccc3c(O)c(NC(=O)c4ccc(O)c(CC=C(C)C)c4)c(=O)oc3c2C)OC1(C)C
3. CC[C@@]1(O)C(=O)OCc2c1cc1n(c2=O)Cc2cc3c(CN(C)C)c(O)ccc3nc2-1 + Nc1ccc(C#CCN(C(=O)Cc2ncc(C(F)(F)F)cc2C(F)(F)F)c2ccc(F)cc2)nn1
4. Cn1ncnc1[C@H]1c2n[nH]c(=O)c3cc(F)cc(c23)N[C@@H]1c1ccc(F)cc1 + Cc1cccc(N(C)C(=O)C2C(O)CCN2c2nc(C)cc(C(F)(F)F)c2C#N)c1
5. COc1cccc(OCCCN)c1-c1cc(Nc2cnc(C#N)cn2)n[nH]1 + Nc1ccc(C#CCN(C(=O)Cc2ncc(C(F)(F)F)cc2C(F)(F)F)c2ccc(F)cc2)nn1
6. C=CCn1c(=O)c2cnc(Nc3ccc(N4CCN(C)CC4)cc3)nc2n1-c1cccc(C(C)(C)O)n1 + Nc1ccc(C#CCN(C(=O)Cc2ncc(C(F)(F)F)cc2C(F)(F)F)c2ccc(F)cc2)nn1
7. CC[C@@]1(O)C(=O)OCc2c1cc1n(c2=O)Cc2cc3c(CN(C)C)c(O)ccc3nc2-1 + Cc1cccc(N(C)C(=O)C2C(O)CCN2c2nc(C)cc(C(F)(F)F)c2C#N)c1

1. 86.3%
2. 102%
3. 103%
4. 114%
5. 97.5%
6. 101%
7. 120%

Would you mind listing viability, T/C for each of the following molecules?
1. CCc1c2c(nc3ccc(O)cc13)-c1cc3c(c(=O)n1C2)COC(=O)[C@]3(O)CC + COC1C(OC(N)=O)C(O)C(Oc2ccc3c(O)c(NC(=O)c4ccc(O)c(CC=C(C)C)c4)c(=O)oc3c2C)OC1(C)C
2. COc1cccc(OCCCN)c1-c1cc(Nc2cnc(C#N)cn2)n[nH]1 + COC1C(OC(N)=O)C(O)C(Oc2ccc3c(O)c(NC(=O)c4ccc(O)c(CC=C(C)C)c4)c(=O)oc3c2C)OC1(C)C
3. CCc1c2c(nc3ccc(O)cc13)-c1cc3c(c(=O)n1C2)COC(=O)[C@]3(O)CC + Nc1ccc(C#CCN(C(=O)Cc2ncc(C(F)(F)F)cc2C(F)(F)F)c2ccc(F)cc2)nn1
4. COc1cccc(OCCCN)c1-c1cc(Nc2cnc(C#N)cn2)n[nH]1 + Cc1cccc(N(C)C(=O)C2C(O)CCN2c2nc(C)cc(C(F)(F)F)c2C#N)c1
5. C=CCn1c(=O)c2cnc(Nc3ccc(N4CCN(C)CC4)cc3)nc2n1-c1cccc(C(C)(C)O)n1 + COC1C(OC(N)=O)C(O)C(Oc2ccc3c(O)c(NC(=O)c4ccc(O)c(CC=C(C)C)c4)c(=O)oc3c2C)OC1(C)C
6. Cn1ncnc1[C@H]1c2n[nH]c(=O)c3cc(F)cc(c23)N[C@@H]1c1ccc(F)cc1 + COC1C(OC(N)=O)C(O)C(Oc2ccc3c(O)c(NC(=O)c4ccc(O)c(CC=C(C)C)c4)c(=O)oc3c2C)OC1(C)C

1: 87.1%; 2: 102%; 3: 81.7%; 4: 106%; 5: 99%; 6: 92%

----------
What viability, T/C was measured for each of the following?
Test system: 299254-011-R-J1-PDC complex spheroid viability
experimental details: Anticancer human tumor 299254-011-R-J1-PDC cell line growth inhibition [POLQ];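 further: spheroids exposed to drugs for one week before measurement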;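 on viability, T/C: percent viability relative to DMSO vehicle control taken as 100%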
test parameters: second compound 0.1 µM; first compound 0.00316 µM; stronger effect = lower value
One number for each entry, in %.

These solved cases illustrate the format of a correct answer.
COc1cccc(OCCCN)c1-c1cc(Nc2cnc(C#N)cn2)n[nH]1 + Nc1ccc(C#CCN(C(=O)Cc2ncc(C(F)(F)F)cc2C(F)(F)F)c2ccc(F)cc2)nn1; 106
CCc1c2c(nc3ccc(O)cc13)-c1cc3c(c(=O)n1C2)COC(=O)[C@]3(O)CC + Nc1ccc(C#CCN(C(=O)Cc2ncc(C(F)(F)F)cc2C(F)(F)F)c2ccc(F)cc2)nn1; 89.7
CC[C@@]1(O)C(=O)OCc2c1cc1n(c2=O)Cc2cc3c(CN(C)C)c(O)ccc3nc2-1 + Cc1cccc(N(C)C(=O)C2C(O)CCN2c2nc(C)cc(C(F)(F)F)c2C#N)c1; 97
C=CCn1c(=O)c2cnc(Nc3ccc(N4CCN(C)CC4)cc3)nc2n1-c1cccc(C(C)(C)O)n1 + Cc1cccc(N(C)C(=O)C2C(O)CCN2c2nc(C)cc(C(F)(F)F)c2C#N)c1; 101

// switching to the query molecule
viability, T/C in this record for Cn1ncnc1[C@H]1c2n[nH]c(=O)c3cc(F)cc(c23)N[C@@H]1c1ccc(F)cc1 + COC1C(OC(N)=O)C(O)C(Oc2ccc3c(O)c(NC(=O)c4ccc(O)c(CC=C(C)C)c4)c(=O)oc3c2C)OC1(C)C : 105
